sequences and their reported switch fluorescence ratio
# Test system: ATP;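 further: ATP exposure 15 min at 22 °C before imaging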
# assay: switch fluorescence ratio, 500 uM ATP over buffer (Cy3 cluster intensity, sum of 5 cycles each) (fold (ratio)); higher = stronger signal-on switching upon ATP binding; sequences stand for … in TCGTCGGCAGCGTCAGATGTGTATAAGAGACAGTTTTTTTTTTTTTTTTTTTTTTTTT…TC
# assay_conditions: aptamer strand: ATP DNA aptamer (quencher-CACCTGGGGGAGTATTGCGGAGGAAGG + anchor), 100 nM annealed; ATP concentration: 500 uM
// no unit, no text: just the number

For the sequence shown here, TGGGGGACGC , give the reported switch fluorescence ratio.
1.08

Others:
For the sequence shown here, AGCTGAAG , give the reported switch fluorescence ratio.
0.967

For the sequence shown here, TCATGACAGC , give the reported switch fluorescence ratio.
1

For the sequence shown here, CTGGCTACGG , give the reported switch fluorescence ratio.
1.01

====

# Test system: ATP;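 further: ATP exposure 15 min at 22 °C before imaging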
# assay: switch fluorescence ratio, 500 uM ATP over buffer (Cy3 cluster intensity, sum of 5 cycles each) (fold (ratio)); higher = stronger signal-on switching upon ATP binding; sequences stand for … in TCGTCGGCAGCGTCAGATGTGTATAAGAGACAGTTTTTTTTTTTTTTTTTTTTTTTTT…TC
# assay_conditions: aptamer strand: ATP DNA aptamer (quencher-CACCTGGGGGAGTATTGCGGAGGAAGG + anchor), 100 nM annealed; ATP concentration: 500 uM
measure_name: switch fluorescence ratio
// no unit, no text: just the number

For the sequence shown here, TCCACTTATT , give the reported switch fluorescence ratio.
1.05

For the sequence shown here, TTAGGGCTTA , give the reported switch fluorescence ratio.
0.995

For the sequence shown here, AAATACGCTC , give the reported switch fluorescence ratio.
1.25

For the sequence shown here, GGGTGGTGGG , give the reported switch fluorescence ratio.
0.987

For the sequence shown here, TTGCTCTGGG , give the reported switch fluorescence ratio.
0.974

For the sequence shown here, GGCTGGGTTA , give the reported switch fluorescence ratio.
1

For the sequence shown here, ATTTTTTGCG , give the reported switch fluorescence ratio.
1

For the sequence shown here, GAGGAGGTTT , give the reported switch fluorescence ratio.
0.968

API: the following record is the query input.
For the sequence shown here, TCATAGTTTT , give the reported switch fluorescence ratio.
1.01

====

# Test system: ATP;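 further: ATP exposure 15 min at 22 °C before imaging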
# assay: switch fluorescence ratio, 500 uM ATP over buffer (Cy3 cluster intensity, sum of 5 cycles each) (fold (ratio)); higher = stronger signal-on switching upon ATP binding; sequences stand for … in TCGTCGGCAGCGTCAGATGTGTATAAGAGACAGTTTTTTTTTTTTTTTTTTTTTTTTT…TC
# assay_conditions: aptamer strand: ATP DNA aptamer (quencher-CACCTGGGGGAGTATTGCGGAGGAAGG + anchor), 100 nM annealed; ATP concentration: 500 uM
measure_name: switch fluorescence ratio
// no unit, no text: just the number

# example entries with known answers
Field: switch fluorescence ratio (ATP). Entry: TTTATAACGG
0.988

Field: switch fluorescence ratio (ATP). Entry: GCGACGTGAC
3.17

Field: switch fluorescence ratio (ATP). Entry: TCATGAGAGT
0.998

Field: switch fluorescence ratio (ATP). Entry: CCAACGGCCA
1.2

Field: switch fluorescence ratio (ATP). Entry: TTGGGTTTAC
1.02

Others:
Field: switch fluorescence ratio (ATP). Entry: AAGTTGTTAT
0.986

Field: switch fluorescence ratio (ATP). Entry: TTTTGAAATA
0.997

Field: switch fluorescence ratio (ATP). Entry: TGCTTCTAAC
1.01

Field: switch fluorescence ratio (ATP). Entry: ATAGTTATGT
1.02

Field: switch fluorescence ratio (ATP). Entry: TTATAAGAGG
0.979

Field: switch fluorescence ratio (ATP). Entry: GACTAGTATA
1.01
